Can you tell me Survivors 60da for the items I'm about to list?
# Test system: murine P 388 leukemia
# method summary: in vivo antitumor activity against murine P 388 leukemia (Geran et al. procedure)
# Set-up: species or system BDF1 male mice
# protocol conditions: Table II; i.p., qd 1-4; optimal dose mg/kg: acetate 40, isobutyrate 40, valerate 40, caproate 60, caprylate 60

Entry COc1cccc2c1C(=O)c1c(O)c3c(c(O)c1C2=O)C[C@@](O)(C(=O)COC(=O)C(C)C)C[C@@H]3O[C@H]1C[C@H](NC(=O)C(F)(F)F)[C@H](O)[C@H](C)O1 [Isobutyrate] — recorded Survivors 60da = 1/5

Entry CCCCCC(=O)OCC(=O)[C@]1(O)Cc2c(O)c3c(c(O)c2[C@@H](O[C@H]2C[C@H](NC(=O)C(F)(F)F)[C@H](O)[C@H](C)O2)C1)C(=O)c1c(OC)cccc1C3=O [Caproate, N-Trifluoroacetyladriamycin-14-caproate] — recorded Survivors 60da = 1/5

src = patent US4035566A
